Biological target: T1, human IL-6 (human, UniProt P05231 30-212)
T1 construct: also called interleukin-6
T1 sequence (P05231 30-212 limits assumed): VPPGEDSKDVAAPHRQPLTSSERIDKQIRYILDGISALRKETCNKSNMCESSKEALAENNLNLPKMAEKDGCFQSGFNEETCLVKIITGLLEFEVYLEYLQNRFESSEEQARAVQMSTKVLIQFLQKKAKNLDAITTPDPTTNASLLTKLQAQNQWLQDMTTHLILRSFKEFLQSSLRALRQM
Test: SPR (Biacore T200), antibody from cell supernatant captured on Protein A, IL-6 flowed over, 37 C
Protocol: Those four positions were selected based on their tolerance for mutations as observed in bacterial and mammalian screens. […] These cultures were centrifuged and supernatants containing secreted antibodies were harvested and diluted in HBS-EP+ running buffer (1:20 ratio). Antibodies were captured on a Protein A chip (GE) by injecting 1:20 cell supernatant dilutions at 10 μL/min for 60 seconds. […]
Recorded measurements of koff, one per entry
Your answer is read as s⁻¹, so omit the unit and give the number.

anti-IL-6 antibody, heavy chain T65K, G66D / light chain WT (antibody, human IgG1, V domains shown, Derived as m2; Engineered human IgG1) VH: EVQLVESGGGLVQPGGSLRLSCAASGFTFSPFAMSWVRQAPGKGLEWVAKISPGGSWTYYSDTVKDRFTFSLDTSKSTAYLQMNSLRAEDTAVYYCARQLWGYYALDIWGQGTLVTVSS VL: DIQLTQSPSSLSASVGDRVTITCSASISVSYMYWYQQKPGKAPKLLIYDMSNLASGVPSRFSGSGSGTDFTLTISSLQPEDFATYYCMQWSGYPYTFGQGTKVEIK : 0.000412

Give the reported koff for this binder. anti-IL-6 antibody, heavy chain T65A, G66D / light chain WT (antibody, human IgG1, V domains shown, Derived as m2; Engineered human IgG1) VH: EVQLVESGGGLVQPGGSLRLSCAASGFTFSPFAMSWVRQAPGKGLEWVAKISPGGSWTYYSDTVADRFTFSLDTSKSTAYLQMNSLRAEDTAVYYCARQLWGYYALDIWGQGTLVTVSS VL: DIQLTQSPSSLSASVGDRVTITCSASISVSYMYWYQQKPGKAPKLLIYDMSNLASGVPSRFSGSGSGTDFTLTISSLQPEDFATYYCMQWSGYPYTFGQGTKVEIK
0.000364
